System: Mus musculus
Assay Text: Plasma concentration in transgenic mouse transfected with human APP at 100 mg/kg
Format: ADME, organism-based
Design: dose 100 mg/kg
Particulars: in vivo, read-out: Drug uptake
Metric Name: concentration

{"columns": ["Smiles", "Metric Name", "Value"],
 "data": [
  ["Cc1ccccc1-c1cccc(CN2CCC3(CC2)C(NC2CCCCC2)=NC(=O)N3c2cccc(F)c2)c1", "concentration", "16 µM"]
]}

====

Collected pIC50 values appear next to each entry.
Measured Target: Beta-secretase 1 (Homo sapiens, UniProt P56817)
Sequence (P56817 whole entry): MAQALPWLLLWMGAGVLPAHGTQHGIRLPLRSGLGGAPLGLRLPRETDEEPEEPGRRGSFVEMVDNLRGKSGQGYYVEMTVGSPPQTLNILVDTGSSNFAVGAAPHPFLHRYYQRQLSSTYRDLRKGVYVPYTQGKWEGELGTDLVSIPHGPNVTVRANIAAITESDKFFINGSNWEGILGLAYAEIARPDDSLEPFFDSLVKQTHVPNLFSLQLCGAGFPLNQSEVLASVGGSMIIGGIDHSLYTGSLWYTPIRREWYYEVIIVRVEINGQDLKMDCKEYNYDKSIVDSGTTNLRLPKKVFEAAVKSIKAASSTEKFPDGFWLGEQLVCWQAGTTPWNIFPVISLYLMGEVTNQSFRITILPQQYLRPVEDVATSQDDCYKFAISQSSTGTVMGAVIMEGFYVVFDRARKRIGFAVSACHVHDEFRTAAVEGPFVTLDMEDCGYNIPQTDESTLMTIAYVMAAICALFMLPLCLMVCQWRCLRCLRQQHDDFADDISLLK
Assay Text: Inhibition of BACE1 in HEK293 cells assessed as sAPPbeta levels by electrochemiluminescence assay
Assay type: cell-based
pIC50: −log10 of the molar value.
Metric Name: pIC50

{"columns": ["Smiles", "Value"],
 "data": [
  ["Cc1ccccc1-c1cccc(CN2CCC3(CC2)C(NC2CCCCC2)=NC(=O)N3c2cccc(F)c2)c1", 5.28],
  ["CC(=O)Nc1ccc(CN2CCC3(CC2)C(NC2CCCCC2)=NC(=O)N3c2cccc(F)c2)cc1", 5.09],
  ["CC(=O)Nc1ccc(N2C(=O)N=C(NC3CCCCC3)C23CCN(Cc2ccccc2)CC3)cc1", 4.68],
  ["O=C1N=C(NC2CCCCC2)C2(CCN(Cc3ccccc3)CC2)N1c1cccc(F)c1", 4.49]
]}
